So I've got a bunch of compounds here, and I need their absorption maximum values.
- testMethodNotes: solvent given as SMILES
- conditionNotes: in CCOC(C)=O
Give the value, in units of nm, as a plain number.

QUERY: For the compound `CC1=CC(C)=[N+]2C1=C(c1ccc(N3CCOCC3)cc1)c1c(C)cc(C)n1[B-]2(F)F` , what absorption maximum is on record?
RESULT: 498

QUERY: Requested read-out: absorption maximum. Entry: `CCC1(CC)c2cc(C#Cc3cc(C#Cc4ccc5c(c4)C(CC)(CC)c4cc(N(c6ccccc6)c6ccccc6)ccc4-5)c4ccc5c(C#Cc6ccc7c(c6)C(CC)(CC)c6cc(N(c8ccccc8)c8ccccc8)ccc6-7)cc(C#Cc6ccc7c(c6)C(CC)(CC)c6cc(N(c8ccccc8)c8ccccc8)ccc6-7)c6ccc3c4c65)ccc2-c2ccc(N(c3ccccc3)c3ccccc3)cc21`
RESULT: 502

QUERY: Any idea what absorption maximum was measured for `COC1=[N+]2C(=C(c3ccccc3)c3cc(SC#N)c(OC)n3[B-]2(F)F)C=C1SC#N` ?
RESULT: 515

QUERY: Entry `CCC1=C(C)C2=C(C)c3cc(I)cn3[B-](F)(F)[N+]2=C1C` has what absorption maximum?
RESULT: 504.5

QUERY: What measured absorption maximum goes with `CCN(CC)c1ccc2cc(/C=C(\C#N)c3nc4ccccc4o3)c(=O)oc2c1` ?
RESULT: 506

* * *

- testMethodNotes: solvent given as SMILES
- conditionNotes: in CC#N
What absorption maximum was measured for each of the following?
Please reply with the bare figure in nm and do not write the unit itself.

QUERY: # get_value(readout='absorption maximum', item= `O=c1oc2ccccc2cc1/C=C/c1ccc([N+](=O)[O-])cc1` )
RESULT: 371

QUERY: Report absorption maximum for `CCOc1ccc(/C=C/C=C/C=C/c2ccc([N+](=O)[O-])cc2)cc1` please.
RESULT: 412

QUERY: // returns reported absorption maximum for input `CCOC(=O)c1ccccc1-c1c2ccc(=O)cc-2oc2cc(OC(=O)[C@H](CO[Si](C)(C)C(C)(C)C)NC(=O)OC(C)(C)C)ccc12`
RESULT: 445

QUERY: What value of measured absorption maximum is listed for `O=C(O)c1ccc2ccc3cccc4ccc1c2c34` ?
RESULT: 379

* * *

- testMethodNotes: solvent given as SMILES
- conditionNotes: in CO
Provide the recorded absorption maximum for the entries that follow.
Note: unit nm is implicit; provide only the numeric part.

QUERY: Which absorption maximum reading was recorded for the molecule `COc1cc(-c2nc3c4cccnc4c4ncccc4c3[nH]2)c(OC)cc1/C=C/c1nc2ccccc2[nH]1` ?
RESULT: 391

QUERY: Request the reported absorption maximum associated with `COc1c2ccccc2c(OC)c2c1c1c(F)cccc1n2C`
RESULT: 404

QUERY: What value of measured absorption maximum is listed for `C(/C=C/c1ccc(N(c2ccccc2)c2ccccc2)cc1)=C\c1ccncc1` ?
RESULT: 399

QUERY: Which measured absorption maximum value corresponds to `CN(C)c1cccc2c1ccc1c(=O)oc(-c3ccc(C(F)(F)F)cc3)cc12` ?
RESULT: 391

QUERY: Value lookup for absorption maximum; key = `Cc1ccc(-c2[nH]c(=O)n3c2-c2ccccc2C3=O)c(O)c1`
RESULT: 397

* * *

Record form. Attribute: absorption maximum. Fill in for each entry.
- testMethodNotes: solvent given as SMILES
- conditionNotes: in O
Entry rule: numbers only, all in nm.

QUERY: // lookup absorption maximum for `Nc1ccc2c(c1)Cc1ccccc1-2`
RESULT: 315

QUERY: // query absorption maximum value for entry `CC(=O)Nc1ccc(S(=O)(=O)O)c(/N=N/c2c(O)c3ccccc3n(C)c2=O)c1`
RESULT: 417

QUERY: Look up absorption maximum: `CN1/C(=C/C=C(/C=C/c2sc3ccccc3[n+]2C)c2cccc(C(F)(F)F)c2)Sc2ccccc21`
RESULT: 639

QUERY: State the recorded absorption maximum for this entry: `Cc1cccc2nc3c(=O)[nH]c(=O)[nH]c3nc12`
RESULT: 386

QUERY: Recorded absorption maximum for `Oc1ccc2ccccc2c1-c1nc(-c2ccccc2)c2ccccn12` , please?
RESULT: 355

* * *

Task for the reader: assign each of the following compounds its reported absorption maximum.
- testMethodNotes: solvent given as SMILES
- conditionNotes: in ClCCl
The reply should be a number in nm, with the unit left off.

QUERY: Return reported absorption maximum; argument: COC(=O)C1=C(C(=O)OC)C2(c3ccccc3-c3c(Br)cc(Br)cc32)C2(/C=C/c3ccccc3)c3cc(OC)c(OC)cc3CCN12 (stereo not given)
RESULT: 328

QUERY: Entry `C(#Cc1nc(C#Cc2ccccc2)c(C#Cc2ccccc2)c(C#Cc2ccccc2)c1C#Cc1ccccc1)c1ccccc1` : reported absorption maximum = ?
RESULT: 421

QUERY: Returns the measured absorption maximum for the input compound. Input: `CC(C)(C)c1ccc(C2=CC3=C(c4ccccc4)c4cc(-c5ccc(C(C)(C)C)cc5)c(-c5ccc(C(C)(C)C)cc5)n4[B-](F)(F)[N+]3=C2c2ccc(C(C)(C)C)cc2)cc1`
RESULT: 598

QUERY: Give its absorption maximum value. Item: `CC(C)[Si](C#Cc1ccc(C#C[Si](C(C)C)(C(C)C)C(C)C)c2nc3cc4c(cc3nc12)[C@H]1c2ccccc2[C@@H]4c2ccccc21)(C(C)C)C(C)C`
RESULT: 435

QUERY: Request the reported absorption maximum associated with `CCN(CC)/C(C)=N\c1ccc2c3c(cccc13)C(=O)c1ccccc1-2`
RESULT: 467

QUERY: // returns reported absorption maximum for input `CCCCCCCCCCn1nnc(-c2ccc(C#Cc3ccc(C#Cc4ccc(-c5nnn(CCCCCCCCCC)n5)cc4)c4nc5c6ccccc6c6ccccc6c5nc34)cc2)n1`
RESULT: 428

QUERY: Find the recorded absorption maximum belonging to `O=c1c2cc(C#Cc3ccc(Cl)cc3)ccc2nc2ccc(C#Cc3ccc(Cl)cc3)cn12` and report it.
RESULT: 382

QUERY: Look up absorption maximum for this compound: `COC(=O)c1ccc(C2=C(/C=C/c3ccc(OC)cc3)O[B-](F)(F)[O+]=C2/C=C/c2ccc(OC)cc2)cc1`
RESULT: 507

QUERY: Name the recorded absorption maximum for `O=S(=O)(c1ccc2c(c1)c1ccccc1n2-c1ccccc1)c1ccc2c(c1)c1ccccc1n2-c1ccccc1` .
RESULT: 290

QUERY: Record request: absorption maximum value, item `CCn1c2ccccc2c2cc(-c3cc(-c4ccc5c(c4)c4ccccc4n5CC)nc(-c4ccc(OC)cc4)n3)ccc21`
RESULT: 364

QUERY: GET /values?readout=absorption maximum&item= `CC(C)(C)c1ccc(-c2cc3c(-c4ccc(C(C)(C)C)cc4)c4cccc5c(-c6ccc(C(C)(C)C)cc6)cc6c(-c7ccc(C(C)(C)C)cc7)c7cccc2c7c3c6c54)cc1`
RESULT: 456

QUERY: Reported absorption maximum, compound `C(S/C=C/c1ccc(/C=C/SC=C(c2ccccc2)c2ccccc2)cc1)=C(c1ccccc1)c1ccccc1` : ____
RESULT: 366

QUERY: Which measured absorption maximum value corresponds to `CN(C)c1ccc(-c2cc(-c3ccc(N(C)C)cc3)ncn2)cc1` ?
RESULT: 378

QUERY: // lookup absorption maximum for `N#C/C(=C\c1ccc(C#N)cc1)c1nc(-c2ccccc2)cs1`
RESULT: 375

QUERY: // absorption maximum lookup, key: `Cc1ccc(-n2c(-c3ccccc3O)nc(-c3ccccc3O)c2-c2ccccc2O)cc1`
RESULT: 309

* * *

- testMethodNotes: solvent given as SMILES
- conditionNotes: in CC(C)O
reportedProperty: absorption maximum (nm)
Provide the reading as a plain figure in nm.

QUERY: // absorption maximum lookup, key: `O=C1Nc2ccccc2/C1=C/C(=O)c1ccc(Cl)cc1`
RESULT: 339

QUERY: Report absorption maximum for `Cc1cc2nc3cc(C)c(N)cc3[n+](-c3ccccc3)c2cc1N` please.
RESULT: 537.1

QUERY: For `O=C1Nc2ccccc2/C1=C/C(=O)c1ccc(Cl)cc1Cl` , what is its reported absorption maximum?
RESULT: 339

QUERY: Reported absorption maximum for `CN(C)c1ccc2nc(-c3ccc(C(=O)OC[C@H](NC(=O)OC(C)(C)C)C(=O)OCc4ccccc4)cc3)sc2c1` : what is it?
RESULT: 397

QUERY: What value of absorption maximum has been reported for the following compound? `O=c1oc2ccccc2cc1-c1nc2ccccc2o1`
RESULT: 354

QUERY: Using the record for `CN(C)c1ccc2c3c(ccc2c1)C(=O)CCC3` , report its absorption maximum.
RESULT: 368

QUERY: Bench note: what absorption maximum did `O=C([O-])c1ccccc1-c1c2cc(Br)c(=O)c(Br)c-2oc2c(Br)c([O-])c(Br)cc12` show?
RESULT: 529

QUERY: Would you kindly share the measured absorption maximum for `COC(=O)c1ccc(C#Cc2ccc(N(C)C)cc2)cc1` ?
RESULT: 360.5

QUERY: If you can, please state the reported absorption maximum value of `COc1nc(Cl)nc(Nc2ccc3c4c(cccc24)C(=O)c2ccccc2-3)n1` .
RESULT: 417.01

QUERY: Tell me the measured absorption maximum of `O=C1/C(=C/C=C/c2cc3c4c(c2)CCCN4CCC3)CC/C1=C\C=C\c1cc2c3c(c1)CCCN3CCC2` , please.
RESULT: 535

QUERY: // returns reported absorption maximum for input `COc1cc(OC)c2ccc(=O)oc2c1`
RESULT: 324

QUERY: Given the compound `COC(=O)c1ccc(C#Cc2ccccc2)cc1` , what is its reported absorption maximum?
RESULT: 313.8

QUERY: Given the entry `COc1cc(C(=O)O)ccc1O` , report its measured absorption maximum.
RESULT: 291.6

QUERY: For the compound shown here, `COCCOCCOCCOCCOc1ccc(OCCOCCOCCOCCOC)c(C=O)c1` , give the reported absorption maximum.
RESULT: 349

QUERY: Returns the measured absorption maximum for the input compound. Input: `CCC/N=C/c1cc2ccc(N(C)C)cc2cc1OC`
RESULT: 450

QUERY: Which measured absorption maximum value corresponds to `Cc1ccc(/C=N/c2cc(C(C)C)c(O)cc2C)cc1` ?
RESULT: 345

QUERY: Please report the recorded absorption maximum for `CCC(=O)c1ccc2cc(N(C)C)ccc2c1` .
RESULT: 367
